// data source = paper PMC7305236

- studySystem: CCR1 (Homo sapiens, UniProt P32246)
- Construct: expressed in transfected cells
- Sequence (P32246 whole entry): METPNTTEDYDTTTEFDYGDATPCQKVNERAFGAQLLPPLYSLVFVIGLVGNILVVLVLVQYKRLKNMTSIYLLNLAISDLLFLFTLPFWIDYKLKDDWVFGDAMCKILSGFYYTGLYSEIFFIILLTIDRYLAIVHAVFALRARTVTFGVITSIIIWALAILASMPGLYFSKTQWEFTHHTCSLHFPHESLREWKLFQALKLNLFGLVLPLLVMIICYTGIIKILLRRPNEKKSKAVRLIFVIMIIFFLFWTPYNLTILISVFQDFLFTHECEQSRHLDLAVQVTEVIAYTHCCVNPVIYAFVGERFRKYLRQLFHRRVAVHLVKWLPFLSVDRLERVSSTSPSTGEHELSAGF
- measurementNotes: Figure S2a opioid peptide screen on chemokine receptors
- Format: cell-based
- Set-up: dose or concentration left out as unconfirmed
- experimentalConditions: replicate 1, read-out: CCR1 activity, ctrl+ = 100
Would you mind telling me the reported activation of each entry?
Numbers only, in %.

compound: CC(C)C[C@H](NC(=O)[C@H](Cc1ccccc1)NC(=O)CNC(=O)CNC(=O)[C@@H](N)Cc1ccc(O)cc1)C(=O)N[C@@H](CCCN=C(N)N)C(=O)N[C@@H](CCCN=C(N)N)C(=O)N[C@@H](CCC(N)=O)C(=O)N[C@@H](Cc1ccccc1)C(=O)N[C@@H](CCCCN)C(=O)N[C@H](C(=O)N[C@H](C(=O)N[C@H](C(=O)O)[C@@H](C)O)C(C)C)C(C)C [Dynorphin B]
observedValue: -23.7

Batch: activation for all items listed.
1. CSCC[C@H](NC(=O)[C@H](Cc1ccccc1)NC(=O)CNC(=O)CNC(=O)[C@@H](N)Cc1ccc(O)cc1)C(=O)N[C@@H](CCCNC(=N)N)C(=O)N[C@@H](CCCNC(=N)N)C(=O)N[C@H](C(N)=O)C(C)C [Adrenorphin]
2. CC[C@H](C)[C@H](NC(=O)[C@H](CCCNC(=N)N)NC(=O)[C@H](CCCNC(=N)N)NC(=O)[C@H](CC(C)C)NC(=O)[C@H](Cc1ccccc1)NC(=O)CNC(=O)CNC(=O)[C@@H](N)Cc1ccc(O)cc1)C(=O)N[C@@H](CCCNC(=N)N)C(=O)N1CCC[C@H]1C(=O)N[C@@H](CCCCN)C(=O)N[C@@H](CC(C)C)C(=O)N[C@@H](CCCCN)C(=O)O [Dynorphin 1-13]

[-15, -29]
